experiment: Pharmacokinetics of single intravenous and oral administration in mice; type: in vivo; settings: mouse, plasma, intravenous injection, 1 mg/kg, read-out: Apparent volume of distribution
Structures can show the parent of a compound that is named as a salt.
metric name: Vd (L/kg)

[[record]]
compound = "CC(C)(O)CN1CCC(COc2cnc(-c3cccc(Cn4c(=O)ccn5c6cc(C#N)ccc6nc45)c3)nc2)CC1 [Hydrochloride of compound 39]"
metric_name = "Vd"
assay_value = 7.27

[[record]]
compound = "CC(C)N1CCC(COc2cnc(-c3cccc(Cn4c(=O)ccn5c6cc(C#N)ccc6nc45)c3)nc2)CC1 [Hydrochloride of compound 25]"
metric_name = "Vd"
assay_value = 5.41


###

assay: Pharmacokinetics of single intravenous and oral administration in dogs; type: in vivo; conditions: dog, plasma, intravenous injection, 1 mg/kg, read-out: Clearance rate
Where a name gives a salt, the structure may show the parent alone.
metric name: clearance (mL/min/kg)

[[record]]
molecule = "CC(C)(O)CN1CCC(COc2cnc(-c3cccc(Cn4c(=O)ccn5c6cc(C#N)ccc6nc45)c3)nc2)CC1 [Hydrochloride of compound 39]"
metric_name = "clearance"
assay_value = 18.7

[[record]]
molecule = "CC(C)N1CCC(COc2cnc(-c3cccc(Cn4c(=O)ccn5c6cc(C#N)ccc6nc45)c3)nc2)CC1 [Hydrochloride of compound 25]"
metric_name = "clearance"
assay_value = 24.2


###

Assay: Pharmacokinetics of single intravenous and oral administration in mice
Assay type: in vivo
Settings: oral administration, 10 mg/kg
Experimental: The objective of this experiment was to study the pharmacokinetics (PK) of the test compound in different species after a single intravenous and a single oral administration. After intravenous injection or oral administration, animal blood samples were collected and the actual blood collection time was recorded. Immediately after collection, blood samples were transferred to labeled centrifuge tubes containing K2-EDTA and subsequently centrifuged and processed to obtain plasma. […]
Counter-ions that a name gives are not always drawn.
metric name: Exposure AUC0-last (µM·h)

[a] CC(C)(O)CN1CCC(COc2cnc(-c3cccc(Cn4c(=O)ccn5c6cc(C#N)ccc6nc45)c3)nc2)CC1 [Hydrochloride of compound 39]
[b] CC(C)N1CCC(COc2cnc(-c3cccc(Cn4c(=O)ccn5c6cc(C#N)ccc6nc45)c3)nc2)CC1 [Hydrochloride of compound 25]
Looking only at measured Exposure AUC0-last, which entry is lower, a or b ? // respond with label for picked entry b

###

tested on: EBC-1 cells; test: EBC-1 cell proliferation experiment (CellTiter-Glo); format: cell-based, human; conditions: Homo sapiens, EBC-1, 72 h, 3 days
Counter-ions that a name gives are not always drawn.
metric name: pIC50
Give only the number. pIC50 is defined as minus log10 of concentration in molar units.

[[record]]
compound = "CN1CCC(COc2cnc(-c3cccc(Cn4c(=O)ccn5c6cc(C#N)ccc6cc45)c3)nc2)CC1 [Hydrochloride of compound 10]"
metric_name = "pIC50"
assay_value = 7.50

[[record]]
compound = "CC(C)N1CCC(COc2cnc(-c3cccc(Cn4c(=O)ccn5c6cc(C#N)cnc6nc45)c3)nc2)CC1 [Hydrochloride of compound 33]"
metric_name = "pIC50"
assay_value = 6.05

[[record]]
compound = "N#Cc1ccc2nc3n(Cc4cccc(-c5ncc(OCC6CCN(CCO)CC6)cn5)c4)c(=O)ccn3c2c1 [Hydrochloride of compound 30]"
metric_name = "pIC50"
assay_value = 8.15

[[record]]
compound = "COCCN1CCC(COc2cnc(-c3cccc(Cn4c(=O)ccn5c6cc(C#N)ccc6nc45)c3)nc2)CC1 [Hydrochloride of compound 35]"
metric_name = "pIC50"
assay_value = 8.24

[[record]]
compound = "COC1(COc2cnc(-c3cccc(Cn4c(=O)ccn5c6cc(C#N)ccc6nc45)c3)nc2)CCN(CCO)CC1 [Hydrochloride of compound 41]"
metric_name = "pIC50"
assay_value = 8.29


Query: pIC50; subject: CCN1CCC(COc2cnc(-c3cccc(Cn4c(=O)c(F)cn5c6cc(C#N)ccc6nc45)c3)nc2)CC1 [Hydrochloride of compound 13] 6.88

Query: pIC50; subject: CN1CCC(COc2cnc(-c3cccc(Cn4c(=O)ccn5c6cc(C#N)ccc6nc45)c3)nc2)CC1 [Hydrochloride of compound 11] 8.16

Query: pIC50; subject: CN1CCC(COc2cnc(-c3cccc(Cn4c(=O)ccc5c4nn4ccc(C#N)cc54)c3)nc2)CC1 [Hydrochloride of compound 27] 7.42

Query: pIC50; subject: CN1CCC(COc2cnc(-c3cccc(Cn4c(=O)ccc5c6cc(C#N)ccc6sc54)c3)nc2)CC1 [Hydrochloride of compound 6] 7.20

Query: pIC50; subject: CN(C)CCN1CCC(COc2cnc(-c3cccc(Cn4c(=O)ccn5c6cc(C#N)ccc6nc45)c3)nc2)CC1 [Compound 31] 6.31

Query: pIC50; subject: CC(C)N1CCC(COc2cnc(-c3cccc(Cn4c5c(ccc4=O)-c4cc(C#N)ccc4C5=O)c3)nc2)CC1 [Hydrochloride of compound 19] 7.85

Query: pIC50; subject: CN1CCC(COc2cnc(-c3cccc(Cn4c(=O)c(F)cc5c6cc(C#N)ccc6sc54)c3)nc2)CC1 [Hydrochloride of compound 8] 7.44

Query: pIC50; subject: CN1CCC(COc2cnc(-c3cccc(Cn4c5c(ccc4=O)-c4cc(C#N)ccc4OC5)c3)nc2)CC1 [Formate of compound 5] 6.23

###

assay: Pharmacokinetics of single intravenous and oral administration in dogs; type: in vivo; details: oral administration, 5 mg/kg
Structures can show the parent of a compound that is named as a salt.
metric name: Exposure AUC0-last (µM·h)

[[record]]
compound = "CC(C)(O)CN1CCC(COc2cnc(-c3cccc(Cn4c(=O)ccn5c6cc(C#N)ccc6nc45)c3)nc2)CC1 [Hydrochloride of compound 39]"
metric_name = "Exposure AUC0-last"
assay_value = 4.74

[[record]]
compound = "CC(C)N1CCC(COc2cnc(-c3cccc(Cn4c(=O)ccn5c6cc(C#N)ccc6nc45)c3)nc2)CC1 [Hydrochloride of compound 25]"
metric_name = "Exposure AUC0-last"
assay_value = 3.54


###

test: Pharmacokinetics of single intravenous and oral administration in mice; type: in vivo; details: intravenous injection, 1 mg/kg
Structures can show the parent of a compound that is named as a salt.
metric name: Exposure AUC (µM·h)

[[record]]
compound = "CC(C)N1CCC(COc2cnc(-c3cccc(Cn4c(=O)ccn5c6cc(C#N)ccc6nc45)c3)nc2)CC1 [Hydrochloride of compound 25]"
assay_value = 2.08

[[record]]
compound = "CC(C)(O)CN1CCC(COc2cnc(-c3cccc(Cn4c(=O)ccn5c6cc(C#N)ccc6nc45)c3)nc2)CC1 [Hydrochloride of compound 39]"
assay_value = 1.8


###

system: EBC-1 cells; test: EBC-1 cell proliferation experiment (CellTiter-Glo); format: cell-based, human; conditions: Homo sapiens, EBC-1, 72 h, 3 days
Where a name gives a salt, the structure may show the parent alone.
// values below are reported IC50
Report the figure in nM without appending any unit label.

Sample answers from the record:
[[record]]
compound = "CCN1CCC(COc2cnc(-c3ccc(F)c(Cn4c(=O)ccn5c6cc(C#N)ccc6nc45)c3)nc2)CC1 [Hydrochloride of compound 29]"
tgt = "EBC-1 cells"
assay_value = 10.3

[[record]]
compound = "CCN1CCC(COc2cnc(-c3cccc(Cn4c5c(ccc4=O)-c4cc(C#N)ccc4C5=O)c3)nc2)CC1 [Hydrochloride of compound 12]"
tgt = "EBC-1 cells"
assay_value = 6.66


Consider the additional compound presented here.
Query: IC50; subject: CCCN1CCC(COc2cnc(-c3cccc(Cn4c(=O)ccn5c6cc(C#N)ccc6nc45)c3)nc2)CC1 [Hydrochloride of compound 43] 7.32

###

test system: EBC-1 cells; experiment: EBC-1 cell proliferation experiment (CellTiter-Glo); type: cell-based, human; conditions: Homo sapiens, EBC-1, 72 h, 3 days
Structures can show the parent of a compound that is named as a salt.
metric name: pIC50
Give only the number. pIC50 is defined as minus log10 of concentration in molar units.

[[record]]
compound = "CN1CCC(COc2cnc(-c3cccc(Cn4c5c(ccc4=O)-c4cc(C#N)ccc4C5=O)c3)nc2)CC1 [Formate of compound 2]"
assay_value = 8.24

[[record]]
compound = "CN1CCC(COc2cnc(-c3cccc(Cn4c(=O)ccc5c4nc4ccc(C#N)cn45)c3)nc2)CC1 [Hydrochloride of compound 23]"
assay_value = 7.78

[[record]]
compound = "CCN1CCC(COc2cnc(-c3cccc(Cn4c(=O)ccn5c6cc(C#N)ccc6nc45)c3)nc2)CC1 [Hydrochloride of compound 24]"
assay_value = 8.37

[[record]]
compound = "CN1CCC(COc2cnc(-c3cccc(Cn4c(=O)ccn5c6ccc(C#N)cc6nc45)c3)nc2)CC1 [Hydrochloride of compound 9]"
assay_value = 7.50

[[record]]
compound = "CC(C)N1CC(COc2cnc(-c3cccc(Cn4c(=O)ccn5c6cc(C#N)ccc6nc45)c3)nc2)C1 [Hydrochloride of compound 46]"
assay_value = 7.92


Query: pIC50; subject: CC(C)N1CCC(O)(COc2cnc(-c3cccc(Cn4c(=O)ccn5c6cc(C#N)ccc6nc45)c3)nc2)CC1 [Hydrochloride of compound 37] 8.31

Query: pIC50; subject: COC1(COc2cnc(-c3cccc(Cn4c(=O)ccn5c6cc(C#N)ccc6nc45)c3)nc2)CCN(C(C)C)CC1 [Hydrochloride of compound 38] 8.07

Query: pIC50; subject: CN1CCC(COc2cnc(-c3cccc(Cn4c(=O)ccn5c6cc(C#N)cnc6nc45)c3)nc2)CC1 [Hydrochloride of compound 32] 6.09

Query: pIC50; subject: CC(C)N1CCC(COc2cnc(-c3cccc(Cn4c(=O)ccn5c6cc(C#N)ccc6nc45)c3)nc2)CC1 [Hydrochloride of compound 25] 8.73

Query: pIC50; subject: N#Cc1ccc2nc3n(Cc4cccc(-c5ncc(OCC6CCN(C7COC7)CC6)cn5)c4)c(=O)ccn3c2c1 [Hydrochloride of compound 26] 7.79

Query: pIC50; subject: CN1CCC(O)(COc2cnc(-c3cccc(Cn4c(=O)ccn5c6cc(C#N)ccc6nc45)c3)nc2)CC1 [Hydrochloride of compound 34] 8.31

Query: pIC50; subject: COC1(COc2cnc(-c3cccc(Cn4c(=O)ccn5c6cc(C#N)ccc6nc45)c3)nc2)CCN(C)CC1 [Hydrochloride of compound 36] 8.21
